cytotoxicity at 70.5 h values, listed per item
- method.summary: Human HepG2 cell viability assay in 384 well format
- Format: toxicity, cell-based
- Parameters: dose 125 nL, time 70.5 hour; concentration not given beside the values
- study.conditions: HepG2 cells, read-out: Inhibition

molecule	cytotoxicity at 70.5 h [%]
O=C(Cc1cccc(F)c1)N1CCc2ncnc(NC3CCC3)c2CC1	2.52
COc1ccc(-c2cc3nn(CC(N)=O)c(=O)n3c(C)n2)cc1	-7.26
CCC(NC(=O)NCc1ccoc1C)c1c(C)nn(C)c1C (stereo unspecified)	-5.65
O=C1COc2cc(S(=O)(=O)NCCC3=CCCCC3)c(Br)cc2N1	-8
Cc1ccc(CN(CCCN2CCOCC2)Cc2[nH]cnc2C)o1	-2.33
Cc1ccc(CN2CCn3c(C(=O)N(C)C)cnc3C2)s1	-20.4
